Ref: patent US6943149B2

molecular target: Thrombin receptor (PAR-1) (Homo sapiens, UniProt P25116); construct: CHRF membranes (Jones, Biochim. Biophys. Acta 1992, 1136, 272) are thawed from −70° C; endogenous in cells; host or cells: CHRF cell membranes; experiment: Thrombin receptor (PAR-1) binding assay; details: CHRF membranes; tritiated 721-40 radioligand; read-out: IC50 (μM) Thr recptr Bdg
Sequence (P25116 22-425): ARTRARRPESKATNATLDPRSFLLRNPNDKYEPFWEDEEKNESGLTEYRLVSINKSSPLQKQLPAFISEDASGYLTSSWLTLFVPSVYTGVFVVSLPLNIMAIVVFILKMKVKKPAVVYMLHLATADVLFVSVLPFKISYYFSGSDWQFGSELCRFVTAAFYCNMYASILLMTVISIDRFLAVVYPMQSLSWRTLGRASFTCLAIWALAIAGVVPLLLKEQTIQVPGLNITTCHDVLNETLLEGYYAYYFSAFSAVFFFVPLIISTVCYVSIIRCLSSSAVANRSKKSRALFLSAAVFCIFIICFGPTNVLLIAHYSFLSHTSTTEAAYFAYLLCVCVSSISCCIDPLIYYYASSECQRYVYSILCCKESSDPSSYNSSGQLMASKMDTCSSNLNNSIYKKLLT
Would you kindly list IC50 for each of these compounds?
Numbers only, in µM.

Example cases with answers are listed next.
Cc1ccccc1Cn1c(=O)n(CCN(C)C)c2cc(NC(=O)N[C@@H](Cc3ccc(F)c(F)c3)C(=O)N[C@@H](CCN)C(=O)NCc3ccccc3)ccc21 [Compound 3] : 1.9
Cc1ccccc1Cn1c(=O)n(CCN(C)C)c2ccc(NC(=O)N[C@@H](Cc3ccc(F)c(F)c3)C(=O)N[C@@H](CCN)C(=O)NCc3ccccc3)cc21 [Compound 4] : 0.7
NCCNC(=O)[C@H](Cc1ccncc1)NC(=O)[C@H](Cc1ccc(F)c(F)c1)NC(=O)Nc1ccc2c(c1)n(Cc1ccc(F)cc1)c(=O)n2CCN1CCCC1 [Compound 8] : 0.5

For the 3 compounds below, give their IC50 values.
1. NCC[C@H](NC(=O)[C@H](Cc1ccc(F)c(F)c1)NC(=O)Nc1ccc2c(c1)n(Cc1c(Cl)cccc1Cl)c(=O)n2CCN1CCCC1)C(=O)NCc1ccccc1 [Compound 1]
2. Cc1ccccc1Cn1c(=O)n(CCN2CCCC2)c2ccc(NC(=O)N[C@@H](Cc3ccc(F)c(F)c3)C(=O)N[C@@H](CCN)C(=O)NCc3ccccc3)cc21 [Compound 5]
3. NCC[C@H](NC(=O)[C@H](Cc1ccc(F)c(F)c1)NC(=O)Nc1ccc2c(c1)n(Cc1ccc(F)cc1)c(=O)n2CCN1CCCC1)C(=O)NCc1ccccc1 [Compound 6]

Reply:
[1.6, 0.4, 0.6]

For the 2 compounds below, give their IC50 values.
1. NCC[C@H](NC(=O)[C@H](Cc1ccc(F)c(F)c1)NC(=O)Nc1ccc2c(c1)n(CCN1CCCC1)c(=O)n2Cc1c(Cl)cccc1Cl)C(=O)NCc1ccccc1 [Compound 7]
2. Cc1ccccc1Cn1c(=O)n(CCN2CCCC2)c2cc(NC(=O)N[C@@H](Cc3ccc(F)c(F)c3)C(=O)N[C@@H](CCN)C(=O)NCc3ccccc3)ccc21 [Compound 2]

Reply:
1: 1.7; 2: 3
